The values you see were collected from PubChem BioAssay.

test: growth inhibition of DIPG glioma cells, dose response, cell-based, SU-DIPG-XVII, MIPE5.0, CellTiter-Glo, qHTS (AID 1347060); settings: SU-DIPG-XVII viability, CellTiter-Glo ATP luminescence;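 on AC50: cells exposed to compound for 48 hours before viability readout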
Records with an inconclusive call do not appear. Active and inactive are the calls of the source. Cut-off not given; nearly all actives show AC50 up to about 26 µM.
Would you mind answering with one of these outcomes? true (1) = active, false (0) = inactive

- CC(C)C(C)/C=C/C(C)C1CCC2C3=CC=C4CC(O)CCC4(C)C3CCC21C (centres undefined): false (0)
- O=c1ccn([C@@H]2O[C@H](CO)[C@@H](O)[C@H]2O)c(=O)[nH]1: false (0)
- CC(C)NCC(O)c1ccc(NS(C)(=O)=O)cc1 (centres undefined): false (0)
- CC(C)[C@H](CO)Nc1nc(Nc2cccc(Cl)c2)c2ncn(C(C)C)c2n1: true (1)
- Cc1cc(NC(=O)Nc2ccc(N(C)C)cc2)c2cc(F)cc(F)c2n1: false (0)
- CC(NCCc1ccc(O)cc1)C(O)c1ccc(O)cc1 (centres undefined): false (0)

[in] # outcome recorded in this test, key = CN1[C@@H]2CCC[C@H]1CC(NC(=O)c1nn(C)c3ccccc13)C2 (some centres undefined)
[out] false (0)

[in] # fetch the recorded call for "CNC(=O)[C@H]1O[C@@H](n2cnc3c(NCc4cccc(I)c4)nc(Cl)nc32)[C@H](O)[C@@H]1O" here
[out] true (1)

[in] Given "CCC(=O)NS(=O)(=O)c1ccc(-c2c(-c3ccccc3)noc2C)cc1" , state the outcome it received in this test.
[out] false (0)
